molecular target: HLA-B*08:01; assay: IEDB peptide-MHC binding, purified MHC/direct/fluorescence; filed as Kd, often an IC50 or EC50 that approximates it; bounds were set here for any values at or beyond the usual limits of such assays; conditions: source organism: Mammarenavirus lassaense
pKd: −log10 of the molar value.

macromolecule.sequence	pKd
ILNHKFCNL	6.85

----------
target: HLA-B*08:02; experiment: IEDB peptide-MHC binding, purified MHC/direct/fluorescence; filed as Kd, often an IC50 or EC50 that approximates it; bounds were set here for any values at or beyond the usual limits of such assays; details: source organism: Vibrio parahaemolyticus RIMD 2210633

macromolecule.sequence	Kd / nM
DMRKRIEAF	171

----------
biological target: HLA-B*44:03; assay: IEDB peptide-MHC binding, purified MHC/competitive/radioactivity; filed as Kd, often an IC50 or EC50 that approximates it; bounds were set here for any values at or beyond the usual limits of such assays; conditions: source organism: Lassa virus Josiah
measurement.label: Kd

macromolecule.sequence	measurement.label	observed
FDAAVSGGL	Kd	≥ 78.1 µM

----------
target: HLA-A*03:01; assay: IEDB peptide-MHC binding, purified MHC/direct/fluorescence; filed as Kd, often an IC50 or EC50 that approximates it; bounds were set here for any values at or beyond the usual limits of such assays; conditions: source organism: Influenza A virus (A/goose/Hong Kong/8/1976(H1N1))
pKd: −log10 of the molar value.

macromolecule.sequence	pKd
KTTYWWDGL	≤ 4.70

----------
biological target: HLA-B*27:05; test: IEDB peptide-MHC binding, purified MHC/direct/fluorescence; filed as Kd, often an IC50 or EC50 that approximates it; bounds were set here for any values at or beyond the usual limits of such assays; settings: source organism: Influenza A virus (A/goose/Hong Kong/8/1976(H1N1))
pKd: −log10 of the molar value.

macromolecule.sequence	pKd
KTTYWWDGL	≤ 4.70

----------
target: HLA-B*57:01; test: IEDB peptide-MHC binding, purified MHC/direct/fluorescence; filed as Kd, often an IC50 or EC50 that approximates it; bounds were set here for any values at or beyond the usual limits of such assays; details: source organism: Vibrio vulnificus CMCP6
pKd: −log10 of the molar value.

macromolecule.sequence	pKd
EMSLADYLY	≤ 4.70

----------
Parameter IC50: see the listing below.
molecular target: HLA-A*11:01; assay: IEDB peptide-MHC binding, purified MHC/competitive/fluorescence; bounds were set here for any values at or beyond the usual limits of such assays; conditions: source organism: Sudan ebolavirus
measurement.label: IC50 (µM)

macromolecule.sequence	observed
VIYRGVNFA	25.1
GVRGFPRCR	33.2
TQALQLFLR	2.53

----------
molecular target: HLA-A*02:03; assay: IEDB peptide-MHC binding, purified MHC/competitive/radioactivity; filed as Kd, often an IC50 or EC50 that approximates it; bounds were set here for any values at or beyond the usual limits of such assays; conditions: source organism: Vaccinia virus Copenhagen
measurement.label: Kd

macromolecule.sequence	observed
LIAGIILLIL	0.68 µM
FVDTMSIYI	0.37 µM

----------
biological target: HLA-A*02:19; assay: IEDB peptide-MHC binding, purified MHC/direct/fluorescence; filed as Kd, often an IC50 or EC50 that approximates it; bounds were set here for any values at or beyond the usual limits of such assays; conditions: source organism: Choclo virus
measurement.label: Kd

macromolecule.sequence	measurement.label	observed
FVKDWMDRI	Kd	≥ 20 µM
